Target: Human immunodeficiency virus type 1 reverse transcriptase (Human immunodeficiency virus 1)
Assay: Inhibition of polymerase activity of HIV1 recombinant reverse transcriptase expressed in Escherichia coli at 50 uM
parameter: inhibition (%)
Quick note: give the figure in %, leave out the unit.

Previously resolved entries follow.
Cc1c(C(=O)OC[C@H]2O[C@@H]3OC(C)(C)O[C@@H]3[C@H]3OC(C)(C)O[C@H]32)nnn1Cc1ccccc1; 28.8
Cc1c(C(=O)O[C@H]2[C@H]3OC(C)(C)O[C@H]3O[C@@H]2[C@H]2COC(C)(C)O2)nnn1Cc1ccccc1; 3
Cc1c(C(=O)O[C@@H]2[C@H]3OC(C)(C)O[C@H]3O[C@@H]2[C@H]2COC(C)(C)O2)nnn1Cc1ccccc1; 64.7

Exercise: // lookup inhibition for Cc1c(C(=O)OC[C@@]2(O)OC[C@@H](O)[C@@H](O)[C@@H]2O)nnn1Cc1ccccc1
Solution: 35.8

Exercise: // lookup inhibition for Cc1c(C(=O)OC[C@H]2O[C@H](O)[C@H](O)[C@@H](O)[C@H]2O)nnn1Cc1ccccc1
Solution: 45.6

Exercise: // lookup inhibition for Cc1c(C(=O)O[C@H]2[C@H](O)[C@H](O)CO[C@]2(O)CO)nnn1Cc1ccccc1
Solution: 45.6

----------
Test: Cytotoxicity against african green monkey Vero cells after 72 hrs by MTT assay
Type: cell-based
Details: chlorocebus sabaeus
Recorded CC50 at 72 h by entry
Quick note: give the figure in µM, leave out the unit.

Previously resolved entries follow.
Cc1c(C(=O)O[C@H]2[C@@H](O)[C@H](O)O[C@H](CO)[C@H]2O)nnn1Cc1ccccc1; 1440
Cc1c(C(=O)OC[C@@]23OC[C@H]4OC(C)(C)O[C@H]4[C@@H]2OC(C)(C)O3)nnn1Cc1ccccc1; 3380
Cc1c(C(=O)OC[C@H]2O[C@@H](O)[C@H](O)[C@@H]2O)nnn1Cc1ccccc1; 1170

Exercise: // lookup CC50 at 72 h for Cc1c(C(=O)O[C@@H]2[C@H]3OC(C)(C)O[C@H]3O[C@@H]2[C@H]2COC(C)(C)O2)nnn1Cc1ccccc1
Solution: 208

----------
Recorded pIC50 by entry
Molecular target: Human immunodeficiency virus type 1 reverse transcriptase (Human immunodeficiency virus 1)
Assay: Inhibition of polymerase activity of HIV1 recombinant reverse transcriptase expressed in Escherichia coli
Answer as the number alone; pIC50 is minus log10 of concentration in mol/L.

Cc1c(C(=O)OC[C@H]2O[C@@H]3OC(C)(C)O[C@@H]3[C@H]2OCc2ccccc2)nnn1Cc1ccccc1; 5.70

Exercise: // lookup pIC50 for Cc1c(C(=O)O[C@@H]2[C@H]3OC(C)(C)O[C@H]3O[C@@H]2[C@H]2COC(C)(C)O2)nnn1Cc1ccccc1
Solution: 5.30

Exercise: // lookup pIC50 for CO[C@@H]1O[C@H](COC(=O)c2nnn(Cc3ccccc3)c2C)[C@H]2OC(C)(C)O[C@@H]12
Solution: 5.66

Sourced from ChEMBL document CHEMBL1152863
